Cited source: patent US6737383B1

Velvetleaf plant response rating for assorted molecules
Tested on: velvetleaf
Protocol Notes: Test B pre/postemergence velvetleaf
Assay type: in vivo, Abutilon theophrasti
Test Conditions: Preemergence, Rate 500 g/ha; scale of 0 to 10 where 0 is no effect and 10 is complete control
Output: the number by itself.

Study these solved cases before continuing.
CC1CC1n1c(=O)on(C(=O)N(c2ccc(Cl)cc2)C(C)C)c1=O (centres unmarked) :: 6
Cc1ccccc1-n1c(=O)on(C(=O)N(c2ccc(OC(F)(F)F)cc2)C(C)C)c1=O :: 0

Exercise: Need Velvetleaf plant response rating, item Cc1c(-n2c(=O)on(C(=O)N(c3ccc(Cl)cc3)C(C)C)c2=O)ccc2ccccc12
Key: 0

Exercise: Please give the measured Velvetleaf plant response rating for this molecule: CCN(C(=O)n1oc(=O)n(C2CCCCC2)c1=O)C1CCCCC1
Key: 0

Exercise: Quick check: Velvetleaf plant response rating of CC(C)N(C(=O)n1oc(=O)n(N2C(C)CCCC2C)c1=O)c1ccc(F)cc1 (centres unmarked) ?
Key: 0
